Ref: patent US5684034A

- STUDY TARGET: recombinant human secreted phospholipase A2 (Homo sapiens)
- Sequence (P14555 21-144): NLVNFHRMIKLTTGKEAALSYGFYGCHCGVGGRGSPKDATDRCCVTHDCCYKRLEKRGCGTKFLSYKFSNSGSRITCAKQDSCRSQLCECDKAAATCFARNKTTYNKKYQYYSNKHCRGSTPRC
- ASSAY TEXT: Human secreted phospholipase A2 inhibition test (chromogenic assay, diheptanoyl thio-PC substrate)
- Type: biochemical
- TEST CONDITIONS: Inhibition of human secreted PLA2 IC50 ± mean deviation (3-5 tests), pH 7.5, 40° C., 30 minutes, 405 nm
Listed below: IC50 values for each entry.
Supply the numeric figure in µM, leaving out any unit text.

CHEMICAL STRUCTURE	ATTRIBUTE MEASURED	VALUE
NC(=O)Cc1c(Br)n(Cc2ccccc2)c2ccc(OCCCP(=O)(O)O)cc12	IC50	0.03
C=CCc1c(O)ccc2c1c(CC(N)=O)c(CC)n2Cc1ccccc1	IC50	0.14

# ---- query compound ----
-- ask Name the reported IC50 value associated with the compound `NC(=O)Cc1cn(Cc2ccccc2)c2ccc(OCCCP(=O)(O)O)cc12`
-- reply 0.2
